Where these numbers come from: ChEMBL document CHEMBL4689842

# System: U2OS
# PROTOCOL_NOTES: Multiplex assay against U2OS
# Type: toxicity, cell-based
# MEASUREMENT_CONDITIONS: human, 12 h, 1 µM, compound concentration 1 uM, replicate 1
Listed here: items and their measured Population Healthy Nuclei (%).
OBSERVATION_TYPE: Population Healthy Nuclei (%)

| MOLECULE | REPORTED_VALUE |
| --- | --- |
| COC(=O)C1=C(C)NC(C)=C(C(=O)OCCCN2CCC(c3ccccc3)(c3ccccc3)CC2)[C@H]1c1cccc([N+](=O)[O-])c1 | 58 |
| COc1cc(Nc2nccc(-c3cnn4nc(OC)ccc34)n2)cc(C(F)(F)F)c1 | 74 |
| CC(C)OC(=O)N1CCC(Oc2ncnc3c2cnn3-c2ccc(S(C)(=O)=O)cc2F)CC1 | 80 |
| CC(C)NC(=O)N1CC[C@H](NC2=Nc3cc(F)ccc3N(CC(F)F)c3ccc(Cl)cc32)C1 | 75 |
| Cl.O=C(O)c1cc(-c2ccc(C3CCNCC3)cc2)c2ccc(-c3ccc(C(F)(F)F)cc3)cc2c1 | 67 |
| Cc1nc(N2CC[C@H](O)C2)ncc1-c1cc(C(F)(F)F)cc2[nH]ncc12 | 93 |
| C=CC(=O)Nc1cccc(Oc2nc(Nc3ccc(N4CCN(C)CC4)cc3OC)ncc2Cl)c1 | 36 |
| Cc1ccc2c(c1)c1c(n2CCc2ccc(C)nc2)CCN(C)C1 [LATREPIRDINE] | 81 |

====

# Tested on: U2OS
# PROTOCOL_NOTES: Multiplex assay against U2OS
# Assay type: toxicity, cell-based
# MEASUREMENT_CONDITIONS: human, 12 h, 1 µM, compound concentration 1 uM, replicate 2

| COMPOUND | Total Cell Count |
| --- | --- |
| Cl.O=C(O)c1cc(-c2ccc(C3CCNCC3)cc2)c2ccc(-c3ccc(C(F)(F)F)cc3)cc2c1 | 60 |
| CC1=C(C(=O)Nc2cc3cn[nH]c3cc2F)C(c2ccc(C(F)(F)F)cc2)CC(=O)N1 (centres undefined) | 76 |
| COc1ccc(-c2ccc3ncc4c(c3c2)n(-c2ccc(N3CCNCC3)c(C(F)(F)F)c2)c(=O)n4C)cn1.O=C(O)/C=C\C(=O)O | 45 |
| CCc1nn(CCCN2CCN(c3cccc(Cl)c3)CC2)c(=O)n1CCOc1ccccc1.Cl [NEFAZODONE HYDROCHLORIDE] | 68 |

====

# Test system: HEK-293T
# PROTOCOL_NOTES: Multiplex assay against HEK293T
# Assay type: toxicity, cell-based
# MEASUREMENT_CONDITIONS: human, 48 h, 1 µM, compound concentration 1 uM, replicate 1
Label Met when Population Apoptotic (%) >= 60%; otherwise Not met.

| MOLECULE | CLASS_ASSIGNMENT |
| --- | --- |
| CC(C)Oc1ccccc1C(=O)Nc1ccccc1C(=O)Nc1cccc(S(=O)(=O)C(F)(F)F)c1 | Met |
| COc1cc(Nc2nccc(-c3cnn4nc(OC)ccc34)n2)cc(C(F)(F)F)c1 | Met |
| COc1cc2ncn(-c3cc(OCc4ccccc4C(F)(F)F)c(C(N)=O)s3)c2cc1OC [GW843682X] | Not met |
| O=C(c1cc2c(cc1F)OC(c1ccc(F)cc1)(c1ccc(Cl)cc1Cl)O2)N1CCOCC1 (centres undefined) | Not met |
| CC1=C(C(=O)Nc2cc3cn[nH]c3cc2F)C(c2ccc(C(F)(F)F)cc2)CC(=O)N1 (centres undefined) | Not met |
| CC(C)(C)NC[C@H](O)COc1nsnc1N1CCOCC1 | Not met |
| CCc1nn(CCCN2CCN(c3cccc(Cl)c3)CC2)c(=O)n1CCOc1ccccc1.Cl [NEFAZODONE HYDROCHLORIDE] | Not met |
